- System: KS-1;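 also: growth inhibition of KS-1 cells, read out with a cell viability assay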
- protocol-description: cells
- Format: functional, cell-based
- condition-notes: Homo sapiens
- Description: SANGER: Inhibition of human KS-1 cell growth in a cell viability assay.
pIC50: −log10 of the molar value.
observed-property: pIC50

record-smiles: OC[C@H](Cc1ccccc1)Nc1nc(Oc2ccc3c(c2)CCC3)nc2c1ncn2Cc1ccc(-c2ccccc2)cc1
result-operator: <
assay-value: 4.99
--
record-smiles: CS(=O)(=O)N1CCN(Cc2cc3nc(-c4cccc5[nH]ncc45)nc(N4CCOCC4)c3s2)CC1
result-operator: =
assay-value: 5.68
--
record-smiles: COc1cc(N2CCC(N3CCN(C)CC3)CC2)ccc1Nc1ncc(Cl)c(Nc2ccccc2S(=O)(=O)C(C)C)n1
result-operator: =
assay-value: 6.71

----------
- Test system: C2BBe1;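 also: growth inhibition of C2BBe1 cells, read out through a viability assay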
- protocol-description: cells
- Type: functional, cell-based, Homo sapiens
- condition-notes: Homo sapiens, C2BBe1
- Description: SANGER: Inhibition of human C2BBe1 cell growth in a cell viability assay.
pIC50: −log10 of the molar value.

record-smiles: CCCCCCCCCCCC1=C(O)C(=O)C=C(O)C1=O
pIC50: 4.86

record-smiles: COc1ccc(N(C(=O)Oc2c(C)cccc2C)c2ccnc(Nc3ccc(N4CCN(C)CC4)cc3)n2)c(OC)c1
pIC50: < 5.29

record-smiles: C[C@@H](Oc1cc(-c2cnn(C3CCNCC3)c2)cnc1N)c1c(Cl)ccc(F)c1Cl
pIC50: < 5.70

----------
- Tested on: KARPAS-422
- protocol-description: cells
- Format: functional, cell-based, Homo sapiens
- condition-notes: karpas-422
- Description: SANGER: Inhibition of human KARPAS-422 cell growth in a cell viability assay.
pIC50: −log10 of the molar value. Where a SMILES comes first, the peptide text is derived from it. The star is where a group is joined. Cbz = O=C(OCc1ccccc1)*

compound: CC(C)C[C@@H](C=O)NC(=O)[C@H](CC(C)C)NC(=O)[C@H](CC(C)C)NC(=O)OCc1ccccc1 [MG-132] (Cbz-Leu-Leu-Leu-aldehyde)
pIC50: < 6.00

----------
- Tested on: ES8
- protocol-description: cells
- Type: functional, cell-based, Homo sapiens
- condition-notes: Homo sapiens, ES8
- Description: SANGER: Inhibition of human ES8 cell growth in a cell viability assay.
Consider the following compounds and their measured IC50 readings.

record-smiles: COc1ccc(N(C(=O)Oc2c(C)cccc2C)c2ccnc(Nc3ccc(N4CCN(C)CC4)cc3)n2)c(OC)c1
target-of-assay: ES8
IC50: > 5120 nM
//
record-smiles: CN(C)CCOc1ccc(-c2nc(-c3ccncc3)c(-c3ccc4c(c3)CC/C4=N\O)[nH]2)cc1
target-of-assay: ES8
IC50: > 5000 nM
//
record-smiles: Cc1cc(N2CCOCC2)cc2[nH]c(-c3c(NC[C@@H](O)c4cccc(Cl)c4)cc[nH]c3=O)nc12
target-of-assay: ES8
IC50: 2300 nM
//
record-smiles: CC1=C(/C=C/C(C)=C/C=C/C(C)=C/C(=O)O)C(C)(C)CCC1
target-of-assay: ES8
IC50: > 10000 nM
//
record-smiles: CC1(C)CCC(c2ccc(Cl)cc2)=C(CN2CCN(c3ccc(C(=O)NS(=O)(=O)c4ccc(N[C@H](CCN5CCOCC5)CSc5ccccc5)c(S(=O)(=O)C(F)(F)F)c4)cc3)CC2)C1
target-of-assay: ES8
IC50: > 2000 nM
//
record-smiles: NC(=O)Nc1cc(-c2cccc(F)c2)sc1C(=O)N[C@H]1CCCNC1
target-of-assay: ES8
IC50: 99.2 nM

----------
- Test system: GOTO;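 also: growth inhibition of GOTO cells, read out by a cell viability assay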
- protocol-description: cells
- Type: functional, cell-based, Homo sapiens
- condition-notes: Homo sapiens, GOTO
- Description: SANGER: Inhibition of human GOTO cell growth in a cell viability assay.
Where a SMILES comes first, the peptide text is derived from it. The star is where a group is joined. Cbz = O=C(OCc1ccccc1)*
Listed below: IC50 values for each entry.

molecule: Cc1cc(N2CCOCC2)cc2[nH]c(-c3c(NC[C@@H](O)c4cccc(Cl)c4)cc[nH]c3=O)nc12
IC50: > 5120 nM

molecule: CC(C)C[C@@H](C=O)NC(=O)[C@H](CC(C)C)NC(=O)[C@H](CC(C)C)NC(=O)OCc1ccccc1 [MG-132] (Cbz-Leu-Leu-Leu-aldehyde)
IC50: > 1000 nM

molecule: COc1cc(N2CCC(N3CCN(C)CC3)CC2)ccc1Nc1ncc(Cl)c(Nc2ccccc2S(=O)(=O)C(C)C)n1
IC50: > 2000 nM

molecule: NC(=O)c1cccc(-c2cc(Nc3ccc(OC(F)(F)F)cc3)ncn2)c1
IC50: > 1280 nM
